- TGT: Collagenase 3 (Homo sapiens)
- PROCEDURE TEXT: Inhibition of human recombinant MMP13 using thiopeptide as chromogenic substrate by colorimetric assay
MEASUREMENT KIND: IC50 (nM)
Supply the numeric figure in nM, leaving out any unit text.

// COc1cccc(CNC(=O)C#Cc2cn(Cc3ccc(C(=O)O)cc3)c(=O)[nH]c2=O)c1 : IC50 value = 11

###

- TGT: DNA repair protein RAD51 homolog 1 (Homo sapiens, UniProt Q06609)
- Sequence (Q06609 2-339 limits assumed): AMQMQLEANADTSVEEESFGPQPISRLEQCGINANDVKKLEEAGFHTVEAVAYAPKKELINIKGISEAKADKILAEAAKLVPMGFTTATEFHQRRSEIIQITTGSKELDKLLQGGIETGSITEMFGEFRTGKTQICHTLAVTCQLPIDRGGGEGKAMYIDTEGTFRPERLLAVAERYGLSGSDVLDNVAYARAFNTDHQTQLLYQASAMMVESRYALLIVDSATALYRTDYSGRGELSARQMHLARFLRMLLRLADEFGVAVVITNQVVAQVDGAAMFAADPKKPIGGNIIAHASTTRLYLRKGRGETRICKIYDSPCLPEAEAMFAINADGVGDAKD
- PROCEDURE TEXT: Binding affinity to of humanised RAD51 C-terminal ATPase domain (with deletion of L2 loop residues 288 to 314) from Pyrococcus furiosus expressed in Escherichia coli by ITC method
MEASUREMENT KIND: pKd
Kindly note that pKd refers to -log10 of the concentration in mol/L and answer with the value alone.

Summary for this compound, O=S(=O)(NCCc1c[nH]c2ccccc12)c1cc(Br)c(Cl)s1 : pKd is 5.89

The measured pKd associated with COC(=O)[C@@H](N)Cc1c[nH]c2ccccc12 reads 3.24
